- system: insulin-like growth factor 2 receptor (IGF2R) on rat hepatic stellate cells HSC-T6 (rat)
- assay-text: flow cytometry, 5-FAM labelled peptide titrated on HSC-T6 cells, 1 h at 37 C; apparent Kd
Ends that are not written are not given here.
recorded-endpoint: pKd
Here pKd is given on a logarithmic scale as minus log10 of the concentration in mol/L.

-- ask Fill in: pKd of VHWDFRQWWQPS (also: 5-FAM label, position not given here) [Peptide-431] is ___
-- reply 4.91
